Test system: 2P-ERK2 (Rattus norvegicus)
Sequence (P63086 whole entry): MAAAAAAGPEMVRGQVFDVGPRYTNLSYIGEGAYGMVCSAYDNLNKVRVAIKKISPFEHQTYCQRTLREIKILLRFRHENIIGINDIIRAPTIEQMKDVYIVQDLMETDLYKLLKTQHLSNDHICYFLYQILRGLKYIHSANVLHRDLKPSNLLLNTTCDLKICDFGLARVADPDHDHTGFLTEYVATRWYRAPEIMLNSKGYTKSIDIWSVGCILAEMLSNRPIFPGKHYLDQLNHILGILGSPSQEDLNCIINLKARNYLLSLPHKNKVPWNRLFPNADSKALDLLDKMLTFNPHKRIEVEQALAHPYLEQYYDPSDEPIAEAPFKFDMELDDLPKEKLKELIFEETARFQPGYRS
Conditions used: 2P-ERK2; rapid on/off inhibitors, varying ATP, 20 μM sub-D
Measured metric: Ki
Reply with the number, then its unit.

[
  {
    "Chem smiles": "Cn1cnc2c(NCc3ccccc3)nc(NCCO)nc21",
    "Ki": "10.8 µM"
  }
]

Switching to the query record.
Which measured Ki value corresponds to Nc1[nH]nc2nnc(-c3c(-c4ccccc4)nn4ccccc34)cc12 ?
0.063 µM

###

Test system: 2P-ERK2 (Rattus norvegicus)
Measured metric: Kd (nM)
State just the number; it will be interpreted in nM.

Which measured Kd value corresponds to O=C(Nc1ccc2[nH]nc(-c3ccncc3)c2c1)[C@@H]1CCN(CC(=O)N2CCN(c3ccc(-c4ncccn4)cc3)CC2)C1 [SCH772984] ?
0.11
